# test.details: in vivo
# experimental.parameters: mouse, po, 5 mg/kg, Cmax, PO 5 mg/kg, individual animals 6, 7, 8
parameter.measured: Cmax (µM)
Express the result in µM but write the number alone.

Data request, read-out Cmax, for Cn1cc(CCn2cnc(-c3cnn(C)c3)c2-c2ccc(C#N)cc2)cn1 6.46
